B1: AUP1 (parent)
chain: EGLLRFSSWPFSIQDVVQPLTLQV

# Variants of: B1
# test.summary: protein stability index of a GFP-peptide fusion (GPS, HEK-293T) (PSI 1-6); higher = more stable;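 also: lentivirally expressed fusions sorted by FACS into six bins by GFP to DsRed ratio, PSI derived from sequencing read proportions per bin multiplied by bin number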
# cond: c terminus: a fixed tail appended
Labels assigned by protein stability index range: b0: < 2; b1: ≥ 2 and < 3; b2: ≥ 3

EGLLRFSSWPFSIQDVVQPLTLQY [V24Y] : b2

Prompt: Please classify: EGLLRFSSWPKSIQDVVQPLTLQV [F11K]
Response: b0

Prompt: Using the reported protein stability index, which band applies to EGLLRFSSWPFSIQDVVQPLTLPV [Q23P] ?
Response: b0

Prompt: Which band does EGLLRFSSWPFSIRDVVQPLTLQV [Q14R] fall in?
Response: b1

Prompt: Kindly state the category for this variant: EGLLRFSSWPFSFQDVVQPLTLQV [I13F]
Response: b2

Prompt: Into which bin does this variant go? EGLLRFSSWPFSIQQVVQPLTLQV [D15Q]
Response: b2

Prompt: Looking at EGLLRFSSWPFSKQDVVQPLTLQV [I13K] , which class would you pick?
Response: b1

Prompt: Into which category would you place EGLLRFSSWPFSIQDVVQPLTFQV [L22F] ?
Response: b2

Prompt: Exercise: read the entry EGLLRKSSWPFSIQDVVQPLTLQV [F6K] and state which class it falls under.
Response: b0
